system: Escherichia coli TOP10; assay: shrunken log2 fold change of peptide-encoding DNA abundance (4.5 h post-induction vs induction); higher = less antimicrobial activity (less host growth inhibition); settings: time post-induction: 4.5 h; library: site-saturation at positions 5, 18, 19, 20;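 note: peptides expressed intracellularly from a pBAD plasmid library in pooled LB shake-flask culture, induced with 0.3% L-arabinose, DNA abundance read by NGS, three biological replicates, DESeq2 with apeglm shrinkage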
attribute-measured: shrunken log2 fold change

{"sequence-input": "RRIRSRPPRLPRPRPRPWYRPRP", "attribute-measured": "shrunken log2 fold change", "value-measured": -0.119}
{"sequence-input": "RRIRSRPPRLPRPRPRPMKFPRP", "attribute-measured": "shrunken log2 fold change", "value-measured": -0.0589}
{"sequence-input": "RRIRCRPPRLPRPRPRPVFTPRP", "attribute-measured": "shrunken log2 fold change", "value-measured": -0.211}
{"sequence-input": "RRIRNRPPRLPRPRPRPPHHPRP", "attribute-measured": "shrunken log2 fold change", "value-measured": -0.11}
{"sequence-input": "RRIRPRPPRLPRPRPRPAACPRP", "attribute-measured": "shrunken log2 fold change", "value-measured": 0.103}
{"sequence-input": "RRIRYRPPRLPRPRPRPMKEPRP", "attribute-measured": "shrunken log2 fold change", "value-measured": -0.00804}
{"sequence-input": "RRIRARPPRLPRPRPRPMMFPRP", "attribute-measured": "shrunken log2 fold change", "value-measured": 0.166}
{"sequence-input": "RRIRGRPPRLPRPRPRPNRGPRP", "attribute-measured": "shrunken log2 fold change", "value-measured": -0.0157}
